- Tested on: Streptococcus pyogenes
- Procedure Text: Antibacterial activity against erythromycin-resistant Streptococcus pyogenes 12-1 assessed as inhibition of bacterial growth by CLSI based micro broth double dilution method
- Type: functional
Measurement Type: MIC (µg/mL)
One number for each entry, in µg/mL.

For every item below, please supply its MIC.
1. CC[C@H]1OC(=O)[C@@](C)(F)C(=O)[C@H](C)[C@@H](O[C@@H]2O[C@H](C)C[C@H](N(C)C)[C@H]2O)[C@@](C)(OC)C[C@@H](C)C(=O)[C@H](C)[C@H]2N(CCCN(C(=O)/C=C/c3ccccc3)c3ccnc4ccccc34)C(=O)O[C@]12C
2. CC[C@H]1OC(=O)[C@@](C)(F)C(=O)[C@H](C)[C@@H](O[C@@H]2O[C@H](C)C[C@H](N(C)C)[C@H]2O)[C@@](C)(OC)C[C@@H](C)C(=O)[C@H](C)[C@H]2N(CCCN(Cc3ccccc3)c3ccnc4ccccc34)C(=O)O[C@]12C
3. CC[C@H]1OC(=O)[C@H](C)[C@@H](O[C@H]2C[C@@](C)(OC)[C@@H](O)[C@H](C)O2)[C@H](C)[C@@H](O[C@@H]2O[C@H](C)C[C@H](N(C)C)[C@H]2O)[C@](C)(OC)C[C@@H](C)C(=O)[C@H](C)[C@@H](O)[C@]1(C)O

Outgoing:
8
16
64

For every item below, please supply its MIC.
1. CCCCN(CCCN1C(=O)O[C@]2(C)[C@@H](CC)OC(=O)[C@@](C)(F)C(=O)[C@H](C)[C@@H](O[C@@H]3O[C@H](C)C[C@H](N(C)C)[C@H]3O)[C@@](C)(OC)C[C@@H](C)C(=O)[C@H](C)[C@@H]12)c1ccnc2ccccc12
2. CC[C@H]1OC(=O)[C@@](C)(F)C(=O)[C@H](C)[C@@H](O[C@@H]2O[C@H](C)C[C@H](N(C)C)[C@H]2O)[C@@](C)(OC)C[C@@H](C)C(=O)[C@H](C)[C@H]2N(CCCN(C(=O)c3ccccc3)c3cnc4ccccc4c3)C(=O)O[C@]12C

Outgoing:
1. 2
2. 32
